Where do these numbers come from? They come from ChEMBL document CHEMBL3603753.

- TEST NAME: Inhibition of CYP3A (unknown origin) by 4VG metabolism assay
- Assay type: ADME, Homo sapiens
pIC50: −log10 of the molar value.

MOLECULE | pIC50
CC(C)N(C)C(=O)n1cnc(S(=O)(=O)C2CC3CCC2C3)n1 (stereo unspecified) | < 4.30

----------
- Test system: HepG2
- TEST NAME: Cytotoxicity against human HepG2 cells
- Format: cell-based
This section presents compounds with their documented IC50 values.

COMPOUND | IC50
COc1ccc(CN(C)C(=O)n2cnc(S(=O)(=O)[C@@H]3C[C@H]4CC[C@@H]3C4)n2)cc1 | > 100 µM
CN(Cc1ccc(C(C)(C)C)cc1)C(=O)n1cnc(S(=O)(=O)[C@@H]2C[C@H]3CC[C@@H]2C3)n1 | 75.2 µM
CC(C)N(C)C(=O)n1cnc(S(=O)(=O)C2CC3CCC2C3)n1 (stereo not drawn) | > 100 µM
